// provenance: patent EP3212201B1

Target: BTK (Homo sapiens, UniProt Q06187)
Sequence (Q06187 whole entry, species assumed): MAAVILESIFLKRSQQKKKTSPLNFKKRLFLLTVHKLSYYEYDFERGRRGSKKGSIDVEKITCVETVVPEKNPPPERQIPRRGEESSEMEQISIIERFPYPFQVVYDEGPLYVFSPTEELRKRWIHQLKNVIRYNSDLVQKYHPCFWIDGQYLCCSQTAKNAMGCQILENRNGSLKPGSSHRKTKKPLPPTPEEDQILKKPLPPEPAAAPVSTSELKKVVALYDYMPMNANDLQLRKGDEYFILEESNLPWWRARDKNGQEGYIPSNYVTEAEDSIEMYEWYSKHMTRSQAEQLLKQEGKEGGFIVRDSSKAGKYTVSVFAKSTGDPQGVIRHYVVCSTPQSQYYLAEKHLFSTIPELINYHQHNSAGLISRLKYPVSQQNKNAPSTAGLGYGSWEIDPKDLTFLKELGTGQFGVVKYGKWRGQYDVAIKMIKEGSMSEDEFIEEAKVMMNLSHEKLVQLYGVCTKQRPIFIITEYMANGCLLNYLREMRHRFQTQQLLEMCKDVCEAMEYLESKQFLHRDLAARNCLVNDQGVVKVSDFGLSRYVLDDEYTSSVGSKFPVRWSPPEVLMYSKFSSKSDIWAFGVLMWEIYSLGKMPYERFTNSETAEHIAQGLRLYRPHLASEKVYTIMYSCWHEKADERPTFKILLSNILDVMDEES
Assay: FRET-based coupled-enzyme protein kinase inhibition assay
Format: biochemical
Conditions: compound at 10 µM, 1% DMSO
Value kind: inhibition at 10 µM

INSERT INTO results (compound, readout_value) VALUES
  ('C[C@@H](NC(=O)OC[C@H]1O[C@@H](n2cnc3c(N)ncnc32)[C@H](O)[C@@H]1O)c1ccc(Cl)cc1', '2%'),
  ('Nc1ncnc2c1ncn2[C@@H]1O[C@H](COC(=O)N2CCN(CCc3ccccc3)CC2)[C@@H](O)[C@H]1O', '0%'),
  ('Nc1ncnc2c1ncn2[C@@H]1O[C@H](COC(=O)NCCCc2nc3ccccc3[nH]2)[C@@H](O)[C@H]1O', '9%'),
  ('Nc1ncnc2c1ncn2[C@@H]1O[C@H](COC(=O)N[C@@H]2CCN(Cc3ccccc3)C2)[C@@H](O)[C@H]1O', '7%'),
  ('Nc1ncnc2c1ncn2[C@@H]1O[C@H](COC(=O)N2CCC(Cc3ccc(F)cc3)C2)[C@@H](O)[C@H]1O (stereo partly shown)', '11%'),
  ('Nc1ncnc2c1ncn2[C@@H]1O[C@H](COC(=O)N2CCN(C(=O)N3CCOCC3)CC2)[C@@H](O)[C@H]1O', '4%'),
  ('Nc1ncnc2c1ncn2[C@@H]1O[C@H](COC(=O)N2CCS(=O)(=O)CC2)[C@@H](O)[C@H]1O', '-5%'),
  ('Nc1ncnc2c1ncn2[C@@H]1O[C@H](COC(=O)NCCN2CCCC2=O)[C@@H](O)[C@H]1O', '-1%'),
  ('CS(=O)(=O)N1CC2(CCN(C(=O)OC[C@H]3O[C@@H](n4cnc5c(N)ncnc54)[C@H](O)[C@@H]3O)CC2)c2ccccc21', '16%'),
  ('CN(C)CCNC(=O)OC[C@H]1O[C@@H](n2cnc3c(N)ncnc32)[C@H](O)[C@@H]1O', '0%'),
  ('CC(C)N1CCC(NC(=O)OC[C@H]2O[C@@H](n3cnc4c(N)ncnc43)[C@H](O)[C@@H]2O)CC1', '-1%'),
  ('N#CCCN1CCN(C(=O)OC[C@H]2O[C@@H](n3cnc4c(N)ncnc43)[C@H](O)[C@@H]2O)CC1', '1%'),
  ('Nc1ncnc2c1ncn2[C@@H]1O[C@H](COC(=O)N2CCN(Cc3ccccc3)CC2CO)[C@@H](O)[C@H]1O (stereo partly shown)', '9%'),
  ('Nc1ncnc2c1ncn2[C@@H]1O[C@H](COC(=O)N2CCC[C@H]2CO)[C@@H](O)[C@H]1O', '9%'),
  ('Nc1ncnc2c1ncn2[C@@H]1O[C@H](COC(=O)NC[C@H](O)CO)[C@@H](O)[C@H]1O', '4%'),
  ('CN1CCN(CCNC(=O)OC[C@H]2O[C@@H](n3cnc4c(N)ncnc43)[C@H](O)[C@@H]2O)CC1', '0%');

---

Biological target: MAP4K4 (HGK) (Homo sapiens, UniProt O95819)
Sequence (O95819 whole entry, species assumed): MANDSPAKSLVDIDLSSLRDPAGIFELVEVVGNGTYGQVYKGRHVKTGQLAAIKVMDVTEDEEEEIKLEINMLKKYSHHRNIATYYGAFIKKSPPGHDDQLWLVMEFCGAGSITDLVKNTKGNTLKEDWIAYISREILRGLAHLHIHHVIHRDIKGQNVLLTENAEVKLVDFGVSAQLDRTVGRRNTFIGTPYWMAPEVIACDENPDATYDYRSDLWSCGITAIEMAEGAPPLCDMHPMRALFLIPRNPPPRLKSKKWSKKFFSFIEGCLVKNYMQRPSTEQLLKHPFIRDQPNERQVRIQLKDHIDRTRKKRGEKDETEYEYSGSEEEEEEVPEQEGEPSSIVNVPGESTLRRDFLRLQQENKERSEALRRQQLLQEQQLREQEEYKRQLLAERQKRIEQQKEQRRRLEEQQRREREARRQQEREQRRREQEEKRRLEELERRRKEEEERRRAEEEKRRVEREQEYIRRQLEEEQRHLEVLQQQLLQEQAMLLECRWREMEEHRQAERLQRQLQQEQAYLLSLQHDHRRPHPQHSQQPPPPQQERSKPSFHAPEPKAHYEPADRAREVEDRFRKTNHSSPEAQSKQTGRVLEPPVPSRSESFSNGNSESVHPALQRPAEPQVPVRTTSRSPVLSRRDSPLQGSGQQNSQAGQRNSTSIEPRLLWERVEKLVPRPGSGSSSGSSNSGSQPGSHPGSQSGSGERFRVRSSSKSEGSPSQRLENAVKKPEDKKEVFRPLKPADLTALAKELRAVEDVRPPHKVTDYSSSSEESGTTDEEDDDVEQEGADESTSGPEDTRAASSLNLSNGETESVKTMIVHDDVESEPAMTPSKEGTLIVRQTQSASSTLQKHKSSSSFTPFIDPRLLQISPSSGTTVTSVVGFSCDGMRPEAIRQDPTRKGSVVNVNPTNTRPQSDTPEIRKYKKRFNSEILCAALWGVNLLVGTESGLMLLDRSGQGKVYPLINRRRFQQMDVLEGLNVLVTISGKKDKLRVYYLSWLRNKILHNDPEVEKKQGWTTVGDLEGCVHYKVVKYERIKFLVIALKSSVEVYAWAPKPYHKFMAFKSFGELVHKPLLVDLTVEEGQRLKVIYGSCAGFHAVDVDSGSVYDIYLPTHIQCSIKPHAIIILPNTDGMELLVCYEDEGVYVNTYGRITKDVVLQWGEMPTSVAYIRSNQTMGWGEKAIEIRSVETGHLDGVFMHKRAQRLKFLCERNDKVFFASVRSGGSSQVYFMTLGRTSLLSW
Experiment: FRET-based coupled-enzyme protein kinase inhibition assay
Format: biochemical
Conditions: compound at 10 µM, 1% DMSO
Experimental: A biochemical assay was then performed in order to measure the protein kinase inhibition. It employed a fluorescence-based coupled-enzyme format and was based on the differential sensitivity of phosphorylated and non-phosphorylated peptides to proteolytic cleavage. […] A significant benefit of this ratiometric method for quantitating reaction progress is the elimination of well-to-well variations in FRET-peptide concentration and signal intensities. […]
Value kind: inhibition at 10 µM (%)

INSERT INTO results (compound, system_name, readout_value) VALUES
  ('Nc1ncnc2c1ncn2[C@@H]1O[C@H](COC(=O)N2CCN(Cc3ccccc3)CC2CO)[C@@H](O)[C@H]1O (some centres unmarked)', 'MAP4K4 (HGK) (Homo sapiens, UniProt O95819)', -5),
  ('Nc1ncnc2c1ncn2[C@@H]1O[C@H](COC(=O)NC[C@H](O)CO)[C@@H](O)[C@H]1O', 'MAP4K4 (HGK) (Homo sapiens, UniProt O95819)', 9),
  ('Nc1ncnc2c1ncn2[C@@H]1O[C@H](COC(=O)N2CCC[C@H]2CO)[C@@H](O)[C@H]1O', 'MAP4K4 (HGK) (Homo sapiens, UniProt O95819)', -2),
  ('Nc1ncnc2c1ncn2[C@@H]1O[C@H](COC(=O)NCCN2CCCC2=O)[C@@H](O)[C@H]1O', 'MAP4K4 (HGK) (Homo sapiens, UniProt O95819)', 17),
  ('Nc1ncnc2c1ncn2[C@@H]1O[C@H](COC(=O)NCCCc2nc3ccccc3[nH]2)[C@@H](O)[C@H]1O', 'MAP4K4 (HGK) (Homo sapiens, UniProt O95819)', 17),
  ('Nc1ncnc2c1ncn2[C@@H]1O[C@H](COC(=O)N2CCN(C(=O)N3CCOCC3)CC2)[C@@H](O)[C@H]1O', 'MAP4K4 (HGK) (Homo sapiens, UniProt O95819)', 9),
  ('Nc1ncnc2c1ncn2[C@@H]1O[C@H](COC(=O)N2CCN(CCc3ccccc3)CC2)[C@@H](O)[C@H]1O', 'MAP4K4 (HGK) (Homo sapiens, UniProt O95819)', 17),
  ('CC(C)N1CCC(NC(=O)OC[C@H]2O[C@@H](n3cnc4c(N)ncnc43)[C@H](O)[C@@H]2O)CC1', 'MAP4K4 (HGK) (Homo sapiens, UniProt O95819)', 17);
